# System: MCF7
# ASSAY TEXT: Antiproliferative activity against human MCF7 cells by MTT assay
# Format: functional, cell-based
VALUE KIND: IC50 (µM)
Give the value, in units of µM, as a plain number.

Would you mind telling me what IC50 value was observed for COc1ccc2cc3c(N)n[nH]c3nc2c1 ?
59.2

Also Cc1cc2cc3c(N)[nH]nc3nc2cc1C , if possible.
78.8

Do the same for COc1cc2cc3c(N)n[nH]c3nc2cc1OC please
72.1

And what about the compound Nc1n[nH]c2nc3c(ccc4ccccc43)cc12 ?
73.6

What about COc1ccc2nc3[nH]nc(N)c3cc2c1 ?
49.5

Nc1[nH]nc2nc3ccccc3cc12 ?
81.5

The measured values listed here are drawn from ChEMBL document CHEMBL4118229.
